experimental.system: Canine_OSMR_hlgG1_Fc (canine)
Sequence (chain, as listed by the source limits assumed, form in doubt): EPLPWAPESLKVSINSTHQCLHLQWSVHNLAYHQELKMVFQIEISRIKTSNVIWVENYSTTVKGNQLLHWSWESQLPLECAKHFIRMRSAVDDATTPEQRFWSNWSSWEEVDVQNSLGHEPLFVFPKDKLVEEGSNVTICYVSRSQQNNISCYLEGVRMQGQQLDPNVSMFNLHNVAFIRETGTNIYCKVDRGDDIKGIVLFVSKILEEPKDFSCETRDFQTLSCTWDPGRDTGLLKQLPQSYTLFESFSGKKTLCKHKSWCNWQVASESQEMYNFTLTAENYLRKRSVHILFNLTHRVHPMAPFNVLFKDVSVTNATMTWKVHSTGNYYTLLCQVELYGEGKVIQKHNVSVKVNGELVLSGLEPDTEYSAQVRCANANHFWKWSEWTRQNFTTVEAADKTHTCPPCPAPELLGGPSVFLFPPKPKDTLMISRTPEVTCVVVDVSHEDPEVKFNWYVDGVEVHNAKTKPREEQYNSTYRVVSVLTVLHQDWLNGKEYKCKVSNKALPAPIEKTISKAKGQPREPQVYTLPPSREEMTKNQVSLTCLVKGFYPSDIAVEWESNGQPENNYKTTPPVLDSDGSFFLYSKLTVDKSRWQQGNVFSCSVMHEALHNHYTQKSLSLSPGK
assay: SPR Biacore, OSMR on chip
Recorded Kd by entry
Write the value in nM as a bare number.

As a guide, the following entries are already answered.
binder="mouse: canine 19F07 chimera (antibody, V domains shown) VH: EVKLVESEGGLVQPGSSMKLSCTASGFTFSDYYMAWVRQVPEKGLEWVANINYDGSSTYYLDSLKSRFIISRDNAKNILYLQMSSLKSEDTATYYCARGLTWDFDVWGTGTTVTVSS VL: DIVMTQSHKFMSPSVGDRVSITCKASQDVDTAVAWYQQKPGQSPKLLIYLASTRHTGVPDRFTGSGSGTDFTLTISNVQSEDLADYFCQQYSRFPLTFGAGTKLELKR" unit_label=nM quantitative_result=442
binder="mouse: canine 10F07 chimera (antibody, V domains shown) VH: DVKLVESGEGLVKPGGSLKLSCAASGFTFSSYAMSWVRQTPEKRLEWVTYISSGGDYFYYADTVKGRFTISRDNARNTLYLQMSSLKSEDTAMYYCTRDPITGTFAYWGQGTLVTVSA VL: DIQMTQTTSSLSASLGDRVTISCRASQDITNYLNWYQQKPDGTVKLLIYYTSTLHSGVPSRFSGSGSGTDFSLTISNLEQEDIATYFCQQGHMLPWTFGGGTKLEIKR" unit_label=nM quantitative_result=1.38

Now consider the entry below.
**Q:** Record request: Kd value, item Mu_10F07 (antibody, V domains shown) VH: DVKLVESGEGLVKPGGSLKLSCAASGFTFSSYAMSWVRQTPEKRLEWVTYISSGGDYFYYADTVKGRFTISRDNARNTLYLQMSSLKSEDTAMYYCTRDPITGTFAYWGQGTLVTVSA VL: DIQMTQTTSSLSASLGDRVTISCRASQDITNYLNWYQQKPDGTVKLLIYYTSTLHSGVPSRFSGSGSGTDFSLTISNLEQEDIATYFCQQGHMLPWTFGGGTKLEIK
**A:** 2.03
